- Test system: COLO 205
- runDescription: NCI tumour cell line growth inhibition, 48 h
Activity calls are given as the source filed them. Cut-off read from the data, not from the text of the source: active = GI50 up to about 1.1 µM and inactive = higher. Residues, ends and D or L forms follow the SMILES beside them. *: point of attachment. Cbz = O=C(OCc1ccccc1)*
# GI50 listing for each entry below
readoutLabel: GI50

{"compound": "CC(=O)OC(C)(C)/N=N/c1ccc(Br)cc1", "assayValue": "0.52 µM (active)"}
{"compound": "C=C1C(=O)OC2CC(C)C3C=CC(=O)C3CC12 (stereo unspecified)", "assayValue": "1.52 µM (inactive)"}
{"compound": "COc1cc(CNC(=O)[C@H](Cc2ccc(O)cn2)NC(C)=O)cc(OC)c1", "assayValue": "> 100 µM (inactive)"}
{"compound": "CC(=O)NNc1nc(C)c(C(=O)/C=C/c2ccc(NC(C)=O)cc2)s1", "assayValue": "> 100 µM (inactive)"}
{"compound": "COc1cc2oc(-c3ccc4c(c3)OCO4)c(OC)c(=O)c2c(OC)c1OC", "assayValue": "> 100 µM (inactive)"}
{"compound": "O=C(NNC(=O)c1ccccc1Cl)c1ccccc1O", "assayValue": "35.2 µM (inactive)"}
{"compound": "COC(=O)C(=O)C(C(=O)OC)C(=O)C(=O)Nc1cc(Cl)c(C)cc1S(=O)(=O)O (stereo unspecified)", "assayValue": "> 100 µM (inactive)"}
{"compound": "Cc1ccc(C(=O)N/N=C(\\N=N\\c2cccc(Cl)c2)c2ccc(N(CCC#N)CCC#N)cc2C)cc1", "assayValue": "> 100 µM (inactive)"}
{"compound": "COC(=O)/C=C\\C(C#N)(C#N)/N=C/c1ccccc1", "assayValue": "1.62 µM (inactive)"}
{"compound": "N#CC1(c2ccccc2)CCN(C2(c3ccccc3)CCCCC2)CC1", "assayValue": "> 100 µM (inactive)"}
{"compound": "Oc1ccc(C(c2ccc(O)cc2)c2ccc(O)cc2)cc1", "assayValue": "7.16 µM (inactive)"}
{"compound": "CC(=O)OC1c2ccccc2CCCCCCC12OCCO2 (stereo unspecified)", "assayValue": "> 100 µM (inactive)"}
{"compound": "C/C(=N/NC(=S)Nc1ccccc1Cl)c1cccc(/C(C)=N\\NC(=S)Nc2ccccc2Cl)n1", "assayValue": "56.8 µM (inactive)"}
{"compound": "C/C(=N\\NC(=S)N1CCN(c2ccccn2)CC1)c1ncccn1", "assayValue": "0.0569 µM (active)"}
{"compound": "Nc1c(Br)cc2c(c1Br)Cc1cc(Br)ccc1-2", "assayValue": "> 100 µM (inactive)"}
{"compound": "N#Cc1cc([N+](=O)[O-])ccc1NC(=O)C(=O)Nc1n[nH]c(N)n1", "assayValue": "> 100 µM (inactive)"}
{"compound": "COC(=O)[C@]1(c2cc3ccccc3[nH]2)CC2CN(C(=O)OCc3ccccc3)C1C=C2OC (stereo partly specified)", "assayValue": "19 µM (inactive)"}
{"compound": "C1=Cc2nc1c(-c1ccncc1)c1ccc([n-]1)c(-c1ccncc1)c1nc(c(-c3ccncc3)c3ccc([n-]3)c2-c2ccncc2)C=C1.[Zn+2]", "assayValue": "> 100 µM (inactive)"}
{"compound": "Cc1cccc2c3ccc4c(c3n(C)c12)C(=O)C=CC4=O", "assayValue": "> 100 µM (inactive)"}
{"compound": "N#CCCN(CCC#N)CCN(CCN(CCC#N)CCC#N)CCN(CCC#N)CCC#N", "assayValue": "> 100 µM (inactive)"}
{"compound": "COC(=O)C1=CC2CCCC1(O)C(C(C)=O)C2 (stereo unspecified)", "assayValue": "39.8 µM (inactive)"}
{"compound": "O=C(O)c1ccccc1Cc1ccco1", "assayValue": "> 100 µM (inactive)"}
{"compound": "NC(C(F)(F)F)(C(F)(F)F)P(=O)(c1ccccc1)c1ccccc1", "assayValue": "> 100 µM (inactive)"}
{"compound": "CC(NC(=O)C(NC(=O)OCc1ccccc1)C(C)C)C(=O)NCC(=O)O (stereo not drawn) (Cbz-Val-Ala-Gly-OH; configuration not given here)", "assayValue": "> 100 µM (inactive)"}
{"compound": "CCOC(C[C@H](O)[C@H]1COC(=S)S1)OCC", "assayValue": "> 100 µM (inactive)"}
{"compound": "N#CC1=C(N)C(C#N)(C#N)C(c2ccc(F)cc2)C=C1C1CC1 (stereo unspecified)", "assayValue": "12.4 µM (inactive)"}
{"compound": "COc1ccc(OC)c2c(C(=O)O)c(Cc3ccccc3)ccc12", "assayValue": "> 100 µM (inactive)"}
{"compound": "O=C1Nc2ccccc2C1Cc1ccccc1 (stereo unspecified)", "assayValue": "> 100 µM (inactive)"}
{"compound": "O=C1c2cccc3cc([N+](=O)[O-])cc(c23)C(=O)N1Nc1ccc([N+](=O)[O-])cc1[N+](=O)[O-]", "assayValue": "11.5 µM (inactive)"}
{"compound": "CCOP(=O)(OCC)/C(C#N)=C/c1ccc[nH]1", "assayValue": "> 100 µM (inactive)"}
{"compound": "S=C1OC2CCCC[C@H]2O1 (stereo partly specified)", "assayValue": "> 100 µM (inactive)"}

====

- System: HCT-116
- runDescription: NCI tumour cell line growth inhibition, 48 h
The source made the active and inactive calls. No stated cut-off is given here; in the data, active = GI50 up to about 1.1 µM and inactive = higher. Residues, ends and D or L forms follow the SMILES beside them. *: point of attachment. Boc = CC(C)(C)OC(=O)*

{"molecule": "CC1=C/C(=C2/N=C(N(C)C)SS2)C(C)=N1.[O-][Cl+3]([O-])([O-])O", "GI50": "> 100 µM (inactive)"}
{"molecule": "COc1cc2ccc(=O)oc2cc1O", "GI50": "56.4 µM (inactive)"}
{"molecule": "COc1ccc(-c2nnc3nc4ccccc4n3c2O)cc1", "GI50": "> 100 µM (inactive)"}
{"molecule": "CCc1cccc(C)c1NS(=O)(=O)c1ccccc1", "GI50": "> 100 µM (inactive)"}
{"molecule": "CNc1ncnc2c1ncn2C1C=CC(COS(N)(=O)=O)C1 (stereo not drawn)", "GI50": "> 100 µM (inactive)"}
{"molecule": "CC1(C)CCC[C@@]2(C)C1CC[C@@]1(CO1)[C@@H]2/C=C\\C(C=O)CC=O (stereo partly drawn)", "GI50": "62.2 µM (inactive)"}
{"molecule": "[N-]=[N+]=Nc1c(Cc2ccccc2)c(Cl)nc2ccccc12", "GI50": "17.5 µM (inactive)"}
{"molecule": "CCOC(=O)[C@H]1Nc2c(cccc2[N+](=O)[O-])[C@H]2OCC[C@@H]12", "GI50": "> 100 µM (inactive)"}
{"molecule": "COC(=O)C(Cc1c[nH]c2ccccc12)NC(=O)C(Cc1c[nH]c2ccccc12)NC(=O)C(Cc1c[nH]c2ccccc12)NC(=O)C(Cc1c[nH]c2ccccc12)NC(=O)C(Cc1c[nH]c2ccccc12)NC(=O)C(Cc1c[nH]c2ccccc12)NC(=O)OC(C)(C)C (stereo not drawn) (Boc-WWWWWW-OMe; configuration not given here)", "GI50": "37.3 µM (inactive)"}
{"molecule": "CCCCCCCCCC(=O)CC(=O)c1c(O)cc(O)cc1O", "GI50": "24.4 µM (inactive)"}
{"molecule": "COc1ncc(C=C(C#N)C#N)c(OC)n1", "GI50": "26.1 µM (inactive)"}
{"molecule": "O=C(/C=C/c1ccccc1)Nc1ccccc1SCCCCl", "GI50": "8.91 µM (inactive)"}
{"molecule": "CS(=O)(=O)N(CCC#N)c1ccc(/C=N/NC(=O)CC(=O)Nc2cccc(Cl)c2)cc1", "GI50": "> 100 µM (inactive)"}

====

- Test system: IGROV-1
- runDescription: NCI tumour cell line growth inhibition, 48 h
Activity calls are given as the source filed them. Rule as the data show it: active = GI50 up to about 1.1 µM and inactive = higher.
Possible outcomes: TRUE for active, FALSE for inactive

{"compound": "CC1=C2C(=CO[C@H](C)[C@H]2C)C(O)=C(C(=O)O)C1=O", "class": "FALSE"}
{"compound": "C#CCNC(Cc1c[nH]cn1)C(=O)O (stereo not drawn)", "class": "FALSE"}
{"compound": "O=C(O)c1cc(-c2ccc3cc(O)c(O)cc3c2)ccc1O", "class": "FALSE"}
{"compound": "C=CCOc1ccc(C2C(C(=O)OCC)C(=O)CC(C)(O)C2C(=O)OCC)cc1OC (stereo not drawn)", "class": "FALSE"}
{"compound": "O=C(C=C1SCCS1)/C=C\\c1ccc(Cl)cc1", "class": "FALSE"}
{"compound": "Cn1c(=O)[nH]c2c(c1=O)C(=O)CN2", "class": "FALSE"}
{"compound": "O=c1[nH]/c(=C/c2ccc(OCc3ccccc3)cn2)c(=O)[nH]/c1=C/c1ccc(O)cc1", "class": "TRUE"}
{"compound": "COc1cc(OC)c2nc3occc3c(OC)c2c1", "class": "FALSE"}
{"compound": "COc1c(C)c(OC)c2c(c1O)[C@@H]1[C@@H]3Cc4c(OC)c(C)c(OC)c(O)c4[C@H](CNC(=O)c4ccc5ccccc5n4)N3[C@@H](C#N)[C@H](C2)N1C", "class": "TRUE"}
{"compound": "Cc1cn(C2CC(N)C(C(=O)O)O2)c(=O)[nH]c1=O (stereo not drawn)", "class": "FALSE"}
{"compound": "Cc1ccc(C(=O)N/N=C(\\N=N\\c2cccc(Cl)c2)c2ccc(N(CCC#N)CCC#N)cc2C)cc1", "class": "FALSE"}
{"compound": "COc1cc2c(cc1OC)C(=O)/C(=C/c1ccc(Cl)cc1)CC2", "class": "FALSE"}
{"compound": "NCCN1C(=O)C2C3c4ccccc4C(c4ccccc43)C2C1=O (stereo not drawn)", "class": "FALSE"}
